test system: MOLT-3 human leukemia cells; test: MTT cytotoxicity assay, MOLT-3; assay type: cell-based; details: Homo sapiens, MOLT-3, Table 1, bromo substituted, 24–36 hours

{"columns": ["mol", "measured.target", "comparison.symbol", "IC50 / µM"],
 "data": [
  ["COc1cc2ncnc(Nc3c(Br)cc(Br)cc3Br)c2cc1OC", "MOLT-3 human leukemia cells", "=", 48.3],
  ["COc1cc2ncnc(Nc3ccc(C)c(Br)c3)c2cc1OC", "MOLT-3 human leukemia cells", ">", 250],
  ["COc1cc2ncnc(C(=O)c3cccc(Br)c3)c2cc1OC", "MOLT-3 human leukemia cells", ">", 250],
  ["COc1cc2ncnc(Nc3ccccc3Br)c2cc1OC", "MOLT-3 human leukemia cells", "=", 148],
  ["COc1cc2ncnc(Nc3ccc(C)cc3)c2cc1OC", "MOLT-3 human leukemia cells", ">", 250],
  ["COc1cc2ncnc(Nc3ccc(Br)cc3)c2cc1OC", "MOLT-3 human leukemia cells", "=", 51.3],
  ["COc1cc2ncnc(Nc3c(Br)cccc3Br)c2cc1OC", "MOLT-3 human leukemia cells", ">", 250],
  ["COc1cc2ncnc(Nc3ccc(Br)cc3F)c2cc1OC", "MOLT-3 human leukemia cells", ">", 250],
  ["COc1cc2ncnc(Nc3cc(Br)c(C)c(Br)c3)c2cc1OC", "MOLT-3 human leukemia cells", "=", 54.5],
  ["COc1cc2ncnc(Nc3ccc(O)c(Br)c3)c2cc1OC", "MOLT-3 human leukemia cells", "=", 9.1],
  ["COc1cc2ncnc(Nc3ccccc3)c2cc1OC", "MOLT-3 human leukemia cells", ">", 250]
]}

----------
test system: U373 human brain tumor cells; experiment: MTT cytotoxicity assay, U373; type: cell-based; conditions: Homo sapiens, U373 MG, Table 5, fluoro-substituted, value ± spread
Here, each record is paired with measured IC50 data.
measured.quantity: IC50

{"columns": ["compound", "value.measured"],
 "data": [
  ["COc1cc2ncnc(Nc3ccc(C(F)(F)F)cc3)c2cc1OC [HI-P223]", "32.1 µM"],
  ["COc1cc2ncnc(Nc3ccc(O)c(F)c3)c2cc1OC [HI-P369]", "> 250 µM"],
  ["COc1cc2ncnc(Nc3ccc(C(c4cccc(N)c4)(C(F)(F)F)C(F)(F)F)cc3)c2cc1OC [HI-P353]", "14.5 µM"],
  ["COc1cc2ncnc(Nc3cc(F)c(O)c(F)c3)c2cc1OC [HI-P408]", "> 250 µM"],
  ["COc1cc2ncnc(Nc3ccccc3F)c2cc1OC [HI-P264]", "53.3 µM"],
  ["COc1cc2ncnc(Nc3c(F)c(F)c(Br)c(F)c3F)c2cc1OC [HI-P144]", "49.5 µM"],
  ["COc1cc2ncnc(Nc3ccccc3OC(F)(F)F)c2cc1OC [HI-P365]", "> 250 µM"],
  ["COc1cc2ncnc(Nc3ccccc3C(F)(F)F)c2cc1OC [HI-P228]", "> 250 µM"],
  ["COc1cc2ncnc(Nc3ccc(OC(F)(F)F)cc3)c2cc1OC [HI-P219]", "83.6 µM"],
  ["COc1cc2ncnc(Nc3ccc(Br)cc3F)c2cc1OC [HI-P214]", "> 250 µM"]
]}
